System: Complement component 3 (C3) (Homo sapiens) (UniProt P01024+P01024)
Sequence (P01024 23-667, chain 1 of 2): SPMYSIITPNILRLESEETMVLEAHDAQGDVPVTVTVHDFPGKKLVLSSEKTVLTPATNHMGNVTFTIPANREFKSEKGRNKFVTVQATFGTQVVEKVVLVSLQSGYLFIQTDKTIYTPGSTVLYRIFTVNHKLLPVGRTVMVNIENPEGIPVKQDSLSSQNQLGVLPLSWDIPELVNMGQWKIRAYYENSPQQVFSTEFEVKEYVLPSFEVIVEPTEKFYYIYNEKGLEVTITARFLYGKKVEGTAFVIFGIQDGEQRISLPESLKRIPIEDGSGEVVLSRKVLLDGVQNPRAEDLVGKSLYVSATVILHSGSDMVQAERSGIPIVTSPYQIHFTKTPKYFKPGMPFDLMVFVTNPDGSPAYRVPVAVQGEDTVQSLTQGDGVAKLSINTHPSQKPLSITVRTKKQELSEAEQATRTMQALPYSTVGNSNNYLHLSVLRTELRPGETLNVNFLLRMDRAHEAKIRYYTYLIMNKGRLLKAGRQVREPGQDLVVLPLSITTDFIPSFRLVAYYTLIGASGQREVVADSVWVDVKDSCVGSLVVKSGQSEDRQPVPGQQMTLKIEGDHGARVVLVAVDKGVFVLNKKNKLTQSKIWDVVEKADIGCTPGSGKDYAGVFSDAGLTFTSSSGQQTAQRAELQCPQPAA
Sequence (P01024 672-1663, chain 2 of 2): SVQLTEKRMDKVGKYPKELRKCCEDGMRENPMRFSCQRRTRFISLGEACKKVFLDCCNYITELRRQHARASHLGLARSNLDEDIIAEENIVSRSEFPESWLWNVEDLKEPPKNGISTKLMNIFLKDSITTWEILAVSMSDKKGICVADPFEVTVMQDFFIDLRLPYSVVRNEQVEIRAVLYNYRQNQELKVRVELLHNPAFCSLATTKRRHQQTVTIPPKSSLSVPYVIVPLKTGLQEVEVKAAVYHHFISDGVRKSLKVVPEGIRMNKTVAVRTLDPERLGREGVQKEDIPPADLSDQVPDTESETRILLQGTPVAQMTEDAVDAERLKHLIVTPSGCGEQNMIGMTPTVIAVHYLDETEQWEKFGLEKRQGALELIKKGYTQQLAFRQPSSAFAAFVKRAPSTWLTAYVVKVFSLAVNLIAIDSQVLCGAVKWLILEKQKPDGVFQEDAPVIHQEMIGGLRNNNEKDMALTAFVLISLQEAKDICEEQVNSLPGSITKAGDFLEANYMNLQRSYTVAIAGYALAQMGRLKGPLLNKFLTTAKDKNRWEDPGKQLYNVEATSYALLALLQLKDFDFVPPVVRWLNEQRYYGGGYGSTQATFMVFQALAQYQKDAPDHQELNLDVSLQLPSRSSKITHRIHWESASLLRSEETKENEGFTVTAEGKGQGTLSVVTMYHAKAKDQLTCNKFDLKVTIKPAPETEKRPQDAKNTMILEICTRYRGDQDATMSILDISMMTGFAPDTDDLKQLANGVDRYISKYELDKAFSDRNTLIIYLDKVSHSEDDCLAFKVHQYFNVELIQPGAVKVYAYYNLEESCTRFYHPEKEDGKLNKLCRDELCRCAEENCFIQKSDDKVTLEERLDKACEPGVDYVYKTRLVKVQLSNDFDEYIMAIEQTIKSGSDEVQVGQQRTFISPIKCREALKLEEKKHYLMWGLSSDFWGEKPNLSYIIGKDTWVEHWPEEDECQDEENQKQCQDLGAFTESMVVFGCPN
Experiment Notes: filter
Test Context: all U in listing = NapdU; 3'-3' idT; SB18T0.01 (5 mM MgCl2), 37C
Observable: Kd
Kindly report the value followed by its unit.

ACTCCCCGGUGACUCAAUAGUCCGUACGUUCCCGGUCCGAACGCGGAGGA [8491-94_3] :: 0.0313 nM

Using the record for ACTCCGAGCAUUGACUCAAUAGUCCGUACGUUUGGCCGGGCAGGGGAGGA [8491-3_3] , report its Kd.
0.119 nM

====

System: Complement component 3 (C3) (Homo sapiens) (UniProt P01024+P01024)
Experiment Notes: filter
Test Context: P = NapdU (all U); 2'-OMe P12; 3'-3' idT; SB18T0.01, 5 mM MgCl2, 37 C
Observable: Kd
Kindly report the value followed by its unit.

Please tell me: Kd of CGGUGACUCAAUAGUCCGUACGUUCCCG [8491-94_70] , system Complement component 3 (C3) (Homo sapiens) (UniProt P01024+P01024)?
0.338 nM

====

System: Complement component 3 (C3) (Homo sapiens) (UniProt P01024+P01024)
Experiment Notes: filter
Test Context: all U = NapdU; C3-spacer replaces C10; 3'-3' idT; SB18T0.01, 37C
Observable: pKd
// returns pKd (minus log10 of molar concentration), number only

Using the record for CCGGUGACUAAUAGUCCGUACGUUCCCGG [8491-94_37] , report its pKd.
10.04

====

System: Complement component 3 (C3) (Homo sapiens) (UniProt P01024+P01024)
Experiment Notes: filter
Test Context: P = NapdU (all U); 2'-OMe C27; 3'-3' idT; SB18T0.01, 5 mM MgCl2, 37 C
Observable: Kd (nM)
Quick note: give the figure in nM, leave out the unit.

Please tell me: Kd of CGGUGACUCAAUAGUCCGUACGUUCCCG [8491-94_85] , system Complement component 3 (C3) (Homo sapiens) (UniProt P01024+P01024)?
0.0524

====

System: Complement component 3 (C3) (Homo sapiens) (UniProt P01024+P01024)
Experiment Notes: filter
Test Context: all U = NapdU; C3-spacer replaces G6; 3'-3' idT; SB18T0.01, 37C
Observable: pKd
// returns pKd (minus log10 of molar concentration), number only

Using the record for CCGGUACUCAAUAGUCCGUACGUUCCCGG [8491-94_34] , report its pKd.
7.85

====

System: Complement component 3 (C3) (Homo sapiens) (UniProt P01024+P01024)
Experiment Notes: filter
Test Context: P = NapdU (all U); 2'-OMe C1; 3'-3' idT; SB18T0.01, 5 mM MgCl2, 37 C
Observable: pKd
// returns pKd (minus log10 of molar concentration), number only

Using the record for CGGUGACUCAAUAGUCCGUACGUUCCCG [8491-94_59] , report its pKd.
10.47
